meta.source: the supplement of paper PMC9170038

System: K4 kissing-loop RNA reporter;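 note: bound reporter read as fluorescence of individual clusters on recovered sequencing chips by microscopy, with normalized cluster intensities fitted with a binding model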
Assay: apparent KD of K4 kissing-loop reporter; higher = weaker reporter binding
Settings: Eterna round: R107; input ligand: tryptophan 2.4 mM
Recorded apparent KD of K4 kissing-loop reporter by entry
measuredMetric: apparent KD of K4 kissing-loop reporter

INSERT INTO measurements (residues, valuemeasured) VALUES
  ('GCGCGUCAUGUCAGCGGUGACUCUGUCGAUACCAGCGCCGCAAGGCGCCCUUGGCAGCGACGCGCUGGAGUGAUGUUCCAGCGUG [#2 Exclusion - Theophylline A Attempt #13 (HarryS)]', '145 nM'),
  ('AAGUGUCAUUAGACACACCGAUGUAUAAACUAGGAUAUGCUGAUAAGCAGAAGGAGUGAUGUUCCUUUCAUCAUCGGAAUUAAAU [#06 K4 FMN A Exclusion]', '144 nM'),
  ('AUUAUAUAGGCGGCCGCCACUAGUGAUGUUAGUGAUGUCAUAAUAUAAUGAUAAAUUAUAUUGCGUAGGACCGGGCCUAAAUAUU [#15 K4 Tryptophan B Exclusion]', '111 nM'),
  ('AAGCAGUCAGGAUCGAAGAUCCUGCAAAACCGAGGACCGGUACGGCCGCCACUCGGAGUGAUGUUCCGAAGACUGCAAAAUAAAA [#SwitchBubble 6]', '64.5 nM'),
  ('GAAAGAAAGUAUGAUACCAGACACCCGAGUGAUGUUCGGAGCAGAGUGAUGUUCUUUUAAGUCCCUUGGCAGCAUAAAAGAAAAG [whbob_SS_Theo_B_sa83]', '166 nM');
